# Tested on: MDA-MB-468 breast
# procedure_details: NCI tumour cell line growth inhibition, 48 h; in the data active = GI50 below about 0.43 µM; inactive = the rest
Classes used: active, inactive

compound=CN1CCN(c2ccc3c(c2)nc(NNC(=O)c2ncccn2)c2cccn23)CC1 class_label=active
compound=Cc1nc2sccn2c1-c1csc(Nc2cccc(Cl)c2C)n1 class_label=inactive
compound=COc1ccc2cc(-c3c(-c4ccncc4)nc(-c4ccc(S(C)(=O)=O)cc4C)n3C)ccc2c1 class_label=inactive
compound=C/C=C1\NC(=O)[C@H]2CSSCCC=C[C@H](CC(=O)N[C@H](C(C)C)C(=O)N2)OC(=O)[C@H](C(C)C)NC1=O class_label=active
compound=CC1(C)CC[C@]23CC[C@]4(C)[C@H](CC[C@@H]5[C@@]6(C)CC[C@H](N)C(C)(C)[C@@H]6CC[C@]54C)[C@H]2[C@H]1OC3 class_label=inactive
